log10 of IC50 overview
tested system: HLA-DRB1*0301 (human)
method summary: competition
study conditions: modification not given
value kind: log10 of IC50 (log10 of the value in nM)

| binder | endpoint result |
| --- | --- |
| CGKYLFNWAVRTKLKLTPIA [F209.07] | 2.74 |
| VGNWQYFFPVIFSKA [58.0114] | 0.61 |
| IPSYKKLIMYSAHDT [68.0048] | 3.99 |
| AYAAQGYKVLVLNPSVAA [F209.02] | 2.77 |
| SHDLMLLRLSEPAKI [68.0010] | 3.38 |
| GMVFELANSIVLPFD [68.0123] | 3.66 |
| HPQWVLTAAHCLKKN [68.0003] | 3.04 |
| LETTMRSPVFTDNSSPPVVP [F209.01] | 2.64 |
